- Experimental Target: QuantiLum Recombinant Luciferase (Photinus pyralis)
- Sequence (P08659 whole entry): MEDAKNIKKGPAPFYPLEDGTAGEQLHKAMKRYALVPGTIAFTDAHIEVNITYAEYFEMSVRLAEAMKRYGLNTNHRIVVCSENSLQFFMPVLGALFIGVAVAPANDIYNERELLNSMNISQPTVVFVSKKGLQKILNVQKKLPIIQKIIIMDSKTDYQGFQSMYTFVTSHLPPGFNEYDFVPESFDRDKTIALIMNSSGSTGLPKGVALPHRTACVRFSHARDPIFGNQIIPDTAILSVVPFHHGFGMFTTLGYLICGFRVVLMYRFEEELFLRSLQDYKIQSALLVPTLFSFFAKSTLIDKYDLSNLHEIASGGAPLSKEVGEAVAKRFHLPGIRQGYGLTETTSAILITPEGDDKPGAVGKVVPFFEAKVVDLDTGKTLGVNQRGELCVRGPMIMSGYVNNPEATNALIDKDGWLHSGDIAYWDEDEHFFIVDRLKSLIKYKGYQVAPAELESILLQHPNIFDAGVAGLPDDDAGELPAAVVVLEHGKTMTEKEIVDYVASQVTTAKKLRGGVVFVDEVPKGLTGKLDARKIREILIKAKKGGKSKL
- Test Protocol: Bioluminescence quantification of compound luciferase inhibition
- Assay Conditions: read-out: LucInhib max inhibition
Each entry falls in a class defined on Emax; the bands are LOW = under 20%, MEDIUM = from 20% up to 30%, HIGH = 30% and over

Qu. The entry to classify is CN1CCN(c2nc(Nc3ccc(O)cc3)nc3ccccc23)CC1 ; which class holds it?
Ans. HIGH

Qu. The entry to classify is COc1ccc2c(c1OC)C(=O)N1c3ccccc3N=C(c3ccc(C)cc3)CC21 (stereo not shown) ; which class holds it?
Ans. MEDIUM

Qu. The entry to classify is CCOC(=O)c1cnc2c(C)cccc2c1Nc1ccc(C(C)=O)cc1 ; which class holds it?
Ans. MEDIUM

Qu. The entry to classify is O=C(Nc1ccc(N2CCN(Cc3ccccc3)CC2)cc1)c1cccs1 ; which class holds it?
Ans. LOW

Qu. The entry to classify is Cc1ccc(N2C3c4ccccc4N(S(=O)(=O)c4ccc(C)cc4)C2c2ccccc2N3S(=O)(=O)c2ccc(C)cc2)cc1 ; which class holds it?
Ans. LOW

Qu. The entry to classify is CCCCc1c(C)nc2c(OC)cccc2c1O ; which class holds it?
Ans. HIGH

Qu. The entry to classify is CC(=O)Nc1nnc(SCc2c(C)cc(C(C)(C)C)cc2C)s1 ; which class holds it?
Ans. HIGH

Qu. The entry to classify is O=C(NCc1ccco1)C1CCN(S(=O)(=O)c2ccc(Cl)cc2)CC1 ; which class holds it?
Ans. MEDIUM

Qu. The entry to classify is CCOC(=O)c1cn(CC)c2cc(N(C)CCc3ccc(OC)c(OC)c3)c(F)cc2c1=O ; which class holds it?
Ans. HIGH

Qu. The entry to classify is CCOC(=O)c1cn(CC)c2cc(N3CCCCC3)c(F)cc2c1=O ; which class holds it?
Ans. MEDIUM

Qu. The entry to classify is COc1ccc(-c2cc3c(SCC(=O)Nc4cc(C(F)(F)F)ccc4Cl)nccn3n2)cc1 ; which class holds it?
Ans. LOW

Qu. The entry to classify is CCOC(=O)c1cnc2c(CC)cccc2c1O ; which class holds it?
Ans. LOW

Qu. The entry to classify is Cc1c(C)n(Cc2ccc(F)cc2)c2ccc(C(=O)NCc3ccco3)cc12 ; which class holds it?
Ans. LOW

Qu. The entry to classify is COc1ccc(C2=C(c3ccc(OC)cc3)C3(c4ccccc4)C(=O)C2(c2ccccc2)C2C(=O)N(c4ccc(C)cc4)C(=O)C23)cc1 (stereo not shown) ; which class holds it?
Ans. LOW

Qu. The entry to classify is CCCc1c(C)nc2ccc(Br)cc2c1O ; which class holds it?
Ans. MEDIUM

Qu. The entry to classify is COc1ccccc1CNC(=O)CCn1c(=O)[nH]c2ccccc2c1=O ; which class holds it?
Ans. LOW

Qu. The entry to classify is Cc1cc(NC(=O)c2ccc(-c3ccccc3)cc2)no1 ; which class holds it?
Ans. HIGH

Qu. The entry to classify is CCCc1c(C)nc2ccccc2c1O ; which class holds it?
Ans. LOW
